Every entry's value here was drawn from PubChem BioAssay AID1628.

I'd be grateful if you could share measured z-score for these entries.
# Experiment Summary: decrease of insulin promoter-GFP reporter – imaging, high-content screening, mouse beta cells (AID 1628)
# Run Conditions: MIN6 insulin promoter GFP reporter, at 5 µM, active compounds read low
Hit rate of the full screen: of about 190,000 compounds, about 930 (0.49%) were called active. Some of the results follow. Results with a measured potency or affinity are listed apart.

Some molecules with known z-score results, for comparison:
Cc1sc2nc(C3CC3)nc(NCCNS(=O)(=O)c3ccccc3)c2c1C	-0.22 (inactive)
Cc1sc2nc(-c3cccs3)nc(N3CCCN(C)CC3)c2c1C	-3.73 (active)
Cc1cccc(N=CC=C2OC(C)(C)C(C)(C)O2)c1	-4.14 (active)

// next item, z-score requested
Find the measured z-score of `CN1C2CCC1/C(=C/c1cccn1C)C(=O)/C2=C\c1cccn1C` and report it.
3.1 (inactive)

---

Consider the following compounds; for each one, report its z-score.
# Experiment Summary: decrease of insulin promoter-GFP reporter – imaging, high-content screening, mouse beta cells (AID 1628)
# Run Conditions: MIN6 insulin promoter GFP reporter, at 5 µM, active compounds read low
Among all 190,000 compounds or so, about 930 (0.49%) were called active. This is one part of the list. Potency and affinity values are given separately.
One number for each entry.

O=C(Nn1c(-c2ccccc2)nc2ccccc2c1=O)c1ccco1	-0.06
Cc1ccc2[nH]c(-c3ccccc3)c(CN(C)C)c(=O)c2c1	4.17
CCN(CC)CCn1c(=S)[nH]c2ccc(Cl)cc2c1=O	3.97

Go through the list and state z-score for each entry.
1. CCCS(=O)(=O)NCCc1cc2ccc(C)cc2[nH]c1=O
2. CCOc1ccccc1CNC(=O)c1cn(C)c(=O)c2c1c1ccccc1n2C
3. Nc1c(C(=O)N/N=C/c2cccnc2)oc2nc(-c3ccco3)cc(-c3ccco3)c12
4. Cc1ccccc1N=Nc1c(C)[nH]n(C(N)=S)c1=O
5. O=C(OCN1C(=O)c2ccccc2C1=O)c1ccco1
6. NC(=O)CC[C@@H]1NC(=O)[C@@H]2CCCN2C(=O)c2cc([N+](=O)[O-])cc(I)c2NCCCC[C@@H](C(=O)NC(CC(=O)O)C(N)=O)NC1=O (some centres not stated)

0.95
1.59
5.39
-9.54
-1.25
-4.71

For every listed record, write down its z-score.
1. NCCCC[C@@H]1NC(=O)[C@H](CCC(=O)O)NC(=O)c2cc([N+](=O)[O-])cc(I)c2NCC[C@@H](C(N)=O)NC1=O
2. CCOC(=O)c1ccc2[nH]c3ccccc3c2c1
3. CC(C)C[C@@H]1NC(=O)[C@H](C(C)C)NC(=O)c2cc([N+](=O)[O-])cc(I)c2NCC[C@@H](C(N)=O)NC1=O
4. COCCNC(=O)c1onc(CSc2cccc(C)c2)c1C(=O)O
5. CCCCC(=O)NC(c1cccs1)c1cc(Cl)c2cccnc2c1O (configuration not stated)
6. COC(=O)c1cn(NC(=O)/C=C/c2cc(OC)ccc2OC)c(=O)c2ccccc12
7. COc1ccc2c(C)cc(SCC(=O)N(C)C3CCS(=O)(=O)C3)nc2c1 (configuration not stated)
8. Cc1ccc(/C=[N+](\[O-])c2ccc(N(C)C)cc2)c2nsnc12

1. -4.01
2. -0.27
3. -5.69
4. 3.82
5. -5.86
6. -3.15
7. 4.13
8. 4.9

For each of the compounds below, note its z-score.
1. COCCn1cc(C(=O)NCc2ccco2)c2c3ccccc3n(C)c2c1=O
2. Cc1ccc(-c2nnc(N3CCN(C(=O)c4ccco4)CC3)c3ccccc23)cc1
3. O=C(O)CCCN=Cc1c(O)c2ccccc2oc1=O
4. COc1ccc(C(=O)CSc2nnc(Cn3cnc4ccccc43)o2)cc1
5. Fc1ccc(NC(=S)NNc2ncc(C(F)(F)F)cc2Cl)c(F)c1

1. 2.09
2. -4.39
3. 2.46
4. -3.47
5. -3.64

// batch mode: one z-score value per listed entry
1. CN(C)S(=O)(=O)c1cc(C(=O)NCC2CCCO2)c(Cl)cc1Cl (configuration not stated)
2. CCC(C)(C)n1nnnc1C(c1cccc(C#N)c1)N1CCN(c2cccc(C)c2C)CC1 (configuration not stated)
3. COc1ccc(N(CC(=O)Nc2ccccc2C(=O)NCC(C)C)S(C)(=O)=O)cc1
4. COC(=O)c1ccc(COc2ccc3c(C)c(C)c(=O)oc3c2)o1
5. CC1(C)CC(=O)c2sc(NS(=O)(=O)Cc3ccccc3)nc2C1
6. CCN(CC)CCN(Cc1cc2ccc(C)cc2[nH]c1=O)C(=O)NC1CCCCC1
7. COc1ccc(-c2c[n+](CC(=O)N3c4ccccc4Sc4ccccc43)c3n2CCC3)cc1
8. CCc1ccc(N2CC(O)(c3cccs3)[N+]3=C2SCCC3)cc1 (configuration not stated)

[-4.71, -3.1, -3.31, 3.49, 1.07, -4.95, -3.33, -3.76]

---

# Experiment Summary: decrease of insulin promoter-GFP reporter – imaging, high-content screening, mouse beta cells (AID 1628)
# Run Conditions: MIN6 insulin promoter GFP reporter, at 5 µM, active compounds read low
Out of some 190,000 compounds screened, about 930 (0.49%) were called active. This is one part of the list. Entries with a potency or affinity are not part of this list.
Quantity Kind: z-score
Answers are plain numbers.

Consider the following illustrative entries.
COc1ccc(N2CCN(C(=O)C3CCC(Cn4c(=S)[nH]c5ccccc5c4=O)CC3)CC2)cc1 (stereo not drawn)	-3.35
O=C(Cn1ncn2c(cc3ccccc32)c1=O)NCc1ccco1	3.78
NC(=S)n1[nH]c(-c2ccc([N+](=O)[O-])cc2)c(N=Nc2cccc(Cl)c2)c1=O	-3.23
O=C(NCCc1csc(-c2ccccc2)n1)c1ccccc1F	4.15
Cc1ccc(-n2ncc(Br)c(Br)c2=O)cc1	-4.97
COc1ccc(N(C(=O)Cc2cccs2)C2C=CS(=O)(=O)C2)cc1 (stereo not drawn)	3.14
CCc1cc(C(=O)Cc2cnn(-c3ccccc3)c2)c(O)cc1O	0.58
Nc1c(C(=O)Nc2nc3ccccc3s2)sc2nc(-c3cccs3)ccc12	5.64

Give measured z-score for every item shown.
1. O=C(CSc1nnc(-c2cccs2)o1)N1CCOCC1
2. COc1ccc(C2=Nn3c(nnc3-c3ccccc3OC)SC2)cc1OC
3. Cc1cc(Cl)ccc1OCC(=O)OCC(=O)Nc1ccc(F)c([N+](=O)[O-])c1
4. CCOC(=O)c1c2c3c(c(Cl)ccc3[nH]c1=O)C(=O)c1ccccc1-2
5. Cc1nc2[nH]c(=O)c3c(n2n1)NC1=C(C(=O)CC(C)(C)C1)C3c1ccccc1 (stereo not drawn)
6. COc1cc(C(Nc2ccc3c(c2)OCO3)C(=O)NC2CCCCC2)cc(OC)c1OC (stereo not drawn)

[-4.31, -3.31, -5.99, -3.28, -4.42, -3.78]

Quick request: z-score for each listed item, please.
1. CC(=O)Oc1ccc2c(=O)c(-c3ccccc3)c(C)oc2c1
2. Cc1csc(NC(=O)c2sc3nc(-c4cccs4)ccc3c2N)n1
3. Cc1cc(C)c(C(=O)O)c(CC(C)(C)C(=O)O)c1
4. Cc1nn(C)c(C)c1NC(=O)CSc1nnc(C)n1-c1ccccc1
5. CN1C=CC2=C(C#N)C(N)C(C#N)(C#N)C(c3ccccc3)C2C1 (stereo not drawn)
6. O=C(NC1=NCCS1)C1Cc2ccccc2CN1C(=O)c1ccccc1 (stereo not drawn)

-0.21
4.58
3.14
0.56
10.1
3.06

---

# Experiment Summary: decrease of insulin promoter-GFP reporter – imaging, high-content screening, mouse beta cells (AID 1628)
# Run Conditions: MIN6 insulin promoter GFP reporter, at 5 µM, active compounds read low
Among all 190,000 compounds or so, about 930 (0.49%) were called active. The list shows a part of the results. Results with a measured potency or affinity are listed apart.
Provide the recorded z-score for the entries that follow.
One number for each entry.

CCOC(=O)N1CCC(N2CCN(S(=O)(=O)c3ccc4ccccc4c3)CC2)CC1	-4.2
COc1ccc(C2CC(C(F)(F)F)n3nc(C(=O)NCc4cn(C)nc4C)c(Cl)c3N2)cc1 (stereo not drawn)	-9.71

Would you kindly look at the next entry?
Look up and state reported z-score for `CCOC(=O)c1c(NC(=O)CSc2nnnn2C)sc(C)c1-c1ccc(C)cc1`
-3.09

---

# Experiment Summary: decrease of insulin promoter-GFP reporter – imaging, high-content screening, mouse beta cells (AID 1628)
# Run Conditions: MIN6 insulin promoter GFP reporter, at 5 µM, active compounds read low
Among all 190,000 compounds or so, about 930 (0.49%) were called active. The list shows a part of the results. Results with a measured potency or affinity are listed apart.
Threshold-based label: z-score under 5 gives yes, z-score not under 5 gives no.

As a guide, the following entries are already answered.
N#C/C(=C/c1ccc(N2CCCCC2)o1)C(=O)Nc1ccc(Cl)cc1	no
Cc1nc2ccccc2nc1N/N=C/c1ccc(O)cc1O	yes
C/C(CC(=O)NCc1ccc(Cl)cc1)=N\NC(=O)Cc1ccccc1	yes
O=C(CSc1ncn[nH]1)NCc1ccccc1	no

Next:
Given `Cc1cn(S(=O)(=O)c2ccc(Br)c3ccccc23)cn1` , is recorded z-score strictly lower than 5?
yes
